# System: CHEAL (Lambsquarters, Common)
# Test Name: Postemergence herbicidal evaluation
# Format: in vivo, Chenopodium album
# Settings: postemergence, rate 0.1250 kg/ha
Below, each entry is listed alongside its reported Herbicidal rating CHEAL.
No unit in the answer, only the number.

INSERT INTO results (molecule, study_system, measured_value) VALUES
  ('Cn1c(C(F)(F)F)cc(=O)n(-c2cc(N=C3SCC(=O)N3CC(=O)OCC3CCCCC3)c(Cl)cc2F)c1=O', 'CHEAL (Lambsquarters, Common)', 9.0),
  ('CN1C(=O)C(CC(=O)NS(=O)(=O)c2ccccc2)SC1=Nc1cc(-n2c(=O)cc(C(F)(F)F)n(C)c2=O)c(F)cc1Cl (stereo not shown)', 'CHEAL (Lambsquarters, Common)', 7.0),
  ('C=CCN1C(=O)C(CC(=O)NS(=O)(=O)CC)SC1=Nc1cc(-n2c(=O)cc(C(F)(F)F)n(C)c2=O)c(F)cc1Cl (stereo not shown)', 'CHEAL (Lambsquarters, Common)', 5.0);

Reported Herbicidal rating CHEAL, molecule C=CCN1C(=O)C(CC(=O)NS(=O)(=O)c2ccccc2)SC1=Nc1cc(-n2c(=O)cc(C(F)(F)F)n(C)c2=O)c(F)cc1Cl (stereo not shown) : ____
7.0

---

# Test system: GALAP (Galium)
# Test Name: Postemergence herbicidal evaluation
# Format: in vivo, Galium aparine
# Settings: postemergence, rate 0.0625 kg/ha
Collected GALAP herbicidal rating values appear next to each entry.
Respond numerically, and do not add a unit to the figure.

INSERT INTO results (structure, assay_readout, measured_value) VALUES
  ('C=CCN1C(=O)CSC1=Nc1cc(N2C(=O)C3=C(CCCC3)C2=O)c(F)cc1Cl', 'GALAP herbicidal rating', 4.0);

Suppose we examine the molecule `CN1C(=O)CS/C1=N/c1cc(-n2c(=O)cc(C(F)(F)F)n(C)c2=O)c(F)cc1Cl` ; what GALAP herbicidal rating value has been reported?
5.0

Give its GALAP herbicidal rating value. Item: `Cn1c(C(F)(F)F)cc(=O)n(-c2cc(N=C3SCC(=O)N3Cc3ccccc3)c(Cl)cc2F)c1=O`
5.0

Need GALAP herbicidal rating, item `CCOC(=O)CN1C(=O)C2(CC2)SC1=Nc1cc(-n2c(=O)cc(C(F)(F)F)n(C)c2=O)c(F)cc1Cl`
3.0

Requested read-out: GALAP herbicidal rating. Entry: `CCOC(=O)CN1C(=O)CN(C)C1=Nc1cc(-n2c(=O)cc(C(F)(F)F)n(C)c2=O)c(F)cc1Cl`
7.0

---

# Tested on: SETVI (Foxtail, Green)
# Test Name: Preemergence herbicidal evaluation
# Type: in vivo, Setaria viridis
# Settings: rate 0.0156 kg/ha; rated 4-5 weeks after treatment
Entries and their Preemergence herbicidal rating SETVI values follow.

INSERT INTO measurements (molecule, measured_value) VALUES
  ('CCOC(=O)CN1C(=O)C(CC(=O)O)SC1=Nc1cc(-n2c(=O)cc(C(F)(F)F)n(C)c2=O)c(Cl)cc1Cl (stereo not shown)', 0.0),
  ('Cn1c(C(F)(F)F)cc(=O)n(-c2cc(N=C3SCC(=O)N3CC(=O)OCC3CCCCC3)c(Cl)cc2F)c1=O', 7.0),
  ('CCOC(=O)CN1C(=O)C(CC(=O)Nc2ccccc2)SC1=Nc1cc(-n2c(=O)cc(C(F)(F)F)n(C)c2=O)c(F)cc1Cl (stereo not shown)', 0.0);

Entry under review: `C#CCOC(=O)CN1C(=O)CSC1=Nc1cc(-n2c(=O)cc(C(F)(F)F)n(C)c2=O)c(F)cc1Cl` . Reported Preemergence herbicidal rating SETVI?
1.0

From: patent US20020137929A1
